- Test system: Candida albicans
- ASSAY_EXPLANATION: Growth inhibition of Candida albicans ATCC 10231 at 31.25 ug/ml incubated for 48 hrs under dark condition by broth microdilution assay relative to amphotericin B
- Format: functional
- ASSAY_CONTEXT: ATCC 10231, 48 h, read-out: GI
Categories are assigned from the measured inhibition of growth at 31.25 µg/mL using these intervals: bottom range: < 5%; center range: ≥ 5% and < 10%; top range: ≥ 10%

Q. Band for the recorded inhibition of growth at 31.25 µg/mL of N#Cc1ccc2nc(-c3ccccc3)cc(-c3ccccc3)c2c1 ?
A. top range

Q. Pick a category. Item: CSc1ccc2nc(-c3ccccc3)cc(-c3ccccc3)c2c1
A. top range

Q. Please let me know in which category the item Cc1ccc(-c2cc(-c3ccccc3)c3cc(Br)ccc3n2)cc1 belongs.
A. bottom range

Q. Given Clc1ccc2nc(-c3ccccc3)cc(-c3ccccc3)c2c1 , name the class its inhibition of growth at 31.25 µg/mL places it in.
A. top range

Q. Form: Item = CC(C)(C)c1ccc2nc(-c3ccccc3)cc(-c3ccccc3)c2c1 ; Class = ?
A. bottom range

Q. Each molecule maps to one class by inhibition of growth at 31.25 µg/mL. Which class for Oc1cccc(-c2cc(-c3ccccc3)c3cc(Br)ccc3n2)c1 ?
A. center range

Q. In plain terms, what class is O=[N+]([O-])c1ccc2c(-c3ccccc3)cc(-c3ccccc3)nc2c1 ?
A. top range

Q. Would you mind sorting O=[N+]([O-])c1ccc(-c2cc(-c3ccccc3)c3cc(Br)ccc3n2)cc1 into the appropriate category?
A. bottom range

Q. Hi there! Could you help me figure out the category for COc1ccc2nc(-c3ccccc3)cc(-c3ccccc3)c2c1 please?
A. center range

Q. Into which bin does this molecule go? Fc1ccc(-c2cc(-c3ccccc3)c3cc(Br)ccc3n2)cc1
A. bottom range

Q. Hi, small favor: classify Brc1ccc2nc(-c3ccco3)cc(-c3ccccc3)c2c1 by its inhibition of growth at 31.25 µg/mL when you get a moment.
A. top range

Q. Bin this entry: O=C(O)c1ccc2nc(-c3ccccc3)cc(-c3ccccc3)c2c1
A. top range

Q. Dear colleague, I would appreciate it if you could identify the bin for COc1cc2nc(-c3ccccc3)cc(-c3ccccc3)c2c(OC)c1OC and reply at your convenience.
A. center range

Q. GET /class?item= Clc1ccc(-c2cc(-c3ccccc3)c3cc(Br)ccc3n2)cc1
A. center range

Q. Could you place COc1cc(-c2cc(-c3ccccc3)c3cc(Br)ccc3n2)cc(OC)c1OC in its proper category? Many thanks.
A. top range

Q. Dear colleague, I would appreciate it if you could identify the bin for Oc1ccc2c(-c3ccccc3)cc(-c3ccccc3)nc2c1 and reply at your convenience.
A. top range

Q. Which inhibition of growth at 31.25 µg/mL band matches FC(F)(F)c1cc2nc(-c3ccccc3)cc(-c3ccccc3)c2cc1Cl ?
A. center range

Q. Could you place c1ccc(-c2cc(-c3ccccc3)c3c4c(ccc3n2)OCO4)cc1 in its proper category? Many thanks.
A. center range

Q. Which class is correct for the following molecule? Fc1ccc2nc(-c3ccccc3)cc(-c3ccccc3)c2c1
A. top range

Q. // bin(item) where item = N#Cc1ccc(-c2cc(-c3ccccc3)c3cc(Br)ccc3n2)cc1
A. bottom range

Q. Entry O=[N+]([O-])c1ccc2nc(-c3ccccc3)cc(-c3ccccc3)c2c1 belongs to which category?
A. bottom range

Q. # bin label for Brc1ccc2nc(C3CCCCC3)cc(-c3ccccc3)c2c1
A. bottom range

Q. Which inhibition of growth at 31.25 µg/mL band matches FC(F)(F)c1ccc2nc(-c3ccccc3)cc(-c3ccccc3)c2c1 ?
A. center range

Q. Into which bin does this molecule go? Oc1ccc2nc(-c3ccccc3)cc(-c3ccccc3)c2c1
A. bottom range

Q. Band for COc1ccc(-c2cc(-c3ccccc3)c3cc(Br)ccc3n2)cc1 ?
A. bottom range

Q. Please indicate the class for Oc1ccc(-c2cc(-c3ccccc3)c3cc(Br)ccc3n2)cc1 based on its inhibition of growth at 31.25 µg/mL.
A. center range

---

Would you mind telling me the reported Ratio IC50 of each entry?
- ASSAY_EXPLANATION: Selectivity index, ratio of IC50 for human CCD-19Lu cells to IC50 for human Hep2C cells
- Type: functional

Q. I am curious: what Ratio IC50 value has been reported for Clc1ccc(-c2cc(-c3ccccc3)c3cc(Br)ccc3n2)cc1 ?
A. 1

Q. What value of measured Ratio IC50 is listed for COc1ccc2nc(-c3ccccc3)cc(-c3ccccc3)c2c1 ?
A. 1

Q. Which Ratio IC50 value belongs to Brc1ccc2nc(-c3ccccc3)cc(-c3ccccc3)c2c1 ?
A. 5

Q. Endpoint output: Ratio IC50 of Oc1ccc(-c2cc(-c3ccccc3)c3cc(Br)ccc3n2)cc1 . Value?
A. 0

Q. Bench note: what Ratio IC50 did Brc1ccc2nc(-c3ccco3)cc(-c3ccccc3)c2c1 show?
A. 6

Q. Which Ratio IC50 value belongs to c1ccc(-c2cc(-c3ccccc3)c3c4c(ccc3n2)OCO4)cc1 ?
A. 0

---

- Test system: Candida albicans
- ASSAY_EXPLANATION: Growth inhibition of Candida albicans ATCC 10231 at 3.9 ug/ml incubated for 48 hrs under dark condition by broth microdilution assay relative to amphotericin B
- Format: functional
- ASSAY_CONTEXT: ATCC 10231, 48 h, read-out: GI
ENDPOINT_NAME: inhibition of growth at 3.9 µg/mL (%)
Provide only the numeric value, understood in %.

Q. Which inhibition of growth at 3.9 µg/mL value is on record for O=[N+]([O-])c1ccc2nc(-c3ccccc3)cc(-c3ccccc3)c2c1 ?
A. 0

Q. Can you look up the measured inhibition of growth at 3.9 µg/mL of CSc1ccc2nc(-c3ccccc3)cc(-c3ccccc3)c2c1 for me?
A. 4.72

Q. What value of measured inhibition of growth at 3.9 µg/mL is listed for Brc1ccc2nc(-c3ccco3)cc(-c3ccccc3)c2c1 ?
A. 1.75

Q. What value of inhibition of growth at 3.9 µg/mL has been reported for the following molecule? Oc1ccc2c(-c3ccccc3)cc(-c3ccccc3)nc2c1
A. 0

Q. Any idea what inhibition of growth at 3.9 µg/mL was measured for FC(F)(F)c1cc2nc(-c3ccccc3)cc(-c3ccccc3)c2cc1Cl ?
A. 0

---

- System: Candida albicans
- ASSAY_EXPLANATION: Growth inhibition of Candida albicans ATCC 10231 at 62.5 ug/ml incubated for 48 hrs under dark condition by broth microdilution assay relative to amphotericin B
- Format: functional
- ASSAY_CONTEXT: ATCC 10231, 48 h, read-out: GI
Returns one of yes or no; yes when inhibition of growth at 62.5 µg/mL is >= 9%.

Q. Tell me whether inhibition of growth at 62.5 µg/mL is at least 9% here: Oc1cccc(-c2cc(-c3ccccc3)c3cc(Br)ccc3n2)c1
A. yes

Q. Is inhibition of growth at 62.5 µg/mL at least 9%? Consider FC(F)(F)c1cc2nc(-c3ccccc3)cc(-c3ccccc3)c2cc1Cl
A. yes

Q. Could you please find out whether Brc1ccc2nc(-c3ccccc3)cc(-c3ccccc3)c2c1 has inhibition of growth at 62.5 µg/mL that meets 9% or exceeds it?
A. yes

Q. Is inhibition of growth at 62.5 µg/mL at least 9%? Consider Cc1ccc(-c2cc(-c3ccccc3)c3cc(Br)ccc3n2)cc1
A. no

Q. Determine whether measured inhibition of growth at 62.5 µg/mL meets or exceeds 9% for COc1ccc(-c2cc(-c3ccccc3)c3cc(Br)ccc3n2)cc1
A. no

Q. # check: inhibition of growth at 62.5 µg/mL of COc1ccc2nc(-c3ccccc3)cc(-c3ccccc3)c2c1 is greater than or equal to 9%
A. yes

Q. API: above_or_equal(metric=inhibition of growth at 62.5 µg/mL, cutoff=9%) for item Clc1ccc(-c2cc(-c3ccccc3)c3cc(Br)ccc3n2)cc1
A. yes

Q. # check: inhibition of growth at 62.5 µg/mL of O=C(O)c1ccc2nc(-c3ccccc3)cc(-c3ccccc3)c2c1 is greater than or equal to 9%
A. yes

Q. Dear colleague, could you confirm whether O=[N+]([O-])c1cccc(-c2cc(-c3ccccc3)c3cc(Br)ccc3n2)c1 has inhibition of growth at 62.5 µg/mL at or above 9%?
A. no

Q. Exam item: decide whether the reported inhibition of growth at 62.5 µg/mL for Fc1ccc2nc(-c3ccccc3)cc(-c3ccccc3)c2c1 is at least 9%.
A. yes

Q. For this compound, is measured inhibition of growth at 62.5 µg/mL 9% or higher? N#Cc1ccc(-c2cc(-c3ccccc3)c3cc(Br)ccc3n2)cc1
A. no

Q. Reported inhibition of growth at 62.5 µg/mL at or above 9%? N#Cc1ccc2nc(-c3ccccc3)cc(-c3ccccc3)c2c1
A. yes

Q. State whether the measured inhibition of growth at 62.5 µg/mL reaches 9%, counting equality as reaching it, for Oc1ccc(-c2cc(-c3ccccc3)c3cc(Br)ccc3n2)cc1
A. yes

Q. API: above_or_equal(metric=inhibition of growth at 62.5 µg/mL, cutoff=9%) for item Oc1ccc2nc(-c3ccccc3)cc(-c3ccccc3)c2c1
A. no

Q. Check if inhibition of growth at 62.5 µg/mL >= 9% (inclusive). Item: CSc1ccc2nc(-c3ccccc3)cc(-c3ccccc3)c2c1
A. yes

The origin of these recorded values is ChEMBL document CHEMBL3875213.
